ASSAY_TARGET: ATM (Homo sapiens (Human), UniProt Q13315)
Sequence (Q13315 whole entry): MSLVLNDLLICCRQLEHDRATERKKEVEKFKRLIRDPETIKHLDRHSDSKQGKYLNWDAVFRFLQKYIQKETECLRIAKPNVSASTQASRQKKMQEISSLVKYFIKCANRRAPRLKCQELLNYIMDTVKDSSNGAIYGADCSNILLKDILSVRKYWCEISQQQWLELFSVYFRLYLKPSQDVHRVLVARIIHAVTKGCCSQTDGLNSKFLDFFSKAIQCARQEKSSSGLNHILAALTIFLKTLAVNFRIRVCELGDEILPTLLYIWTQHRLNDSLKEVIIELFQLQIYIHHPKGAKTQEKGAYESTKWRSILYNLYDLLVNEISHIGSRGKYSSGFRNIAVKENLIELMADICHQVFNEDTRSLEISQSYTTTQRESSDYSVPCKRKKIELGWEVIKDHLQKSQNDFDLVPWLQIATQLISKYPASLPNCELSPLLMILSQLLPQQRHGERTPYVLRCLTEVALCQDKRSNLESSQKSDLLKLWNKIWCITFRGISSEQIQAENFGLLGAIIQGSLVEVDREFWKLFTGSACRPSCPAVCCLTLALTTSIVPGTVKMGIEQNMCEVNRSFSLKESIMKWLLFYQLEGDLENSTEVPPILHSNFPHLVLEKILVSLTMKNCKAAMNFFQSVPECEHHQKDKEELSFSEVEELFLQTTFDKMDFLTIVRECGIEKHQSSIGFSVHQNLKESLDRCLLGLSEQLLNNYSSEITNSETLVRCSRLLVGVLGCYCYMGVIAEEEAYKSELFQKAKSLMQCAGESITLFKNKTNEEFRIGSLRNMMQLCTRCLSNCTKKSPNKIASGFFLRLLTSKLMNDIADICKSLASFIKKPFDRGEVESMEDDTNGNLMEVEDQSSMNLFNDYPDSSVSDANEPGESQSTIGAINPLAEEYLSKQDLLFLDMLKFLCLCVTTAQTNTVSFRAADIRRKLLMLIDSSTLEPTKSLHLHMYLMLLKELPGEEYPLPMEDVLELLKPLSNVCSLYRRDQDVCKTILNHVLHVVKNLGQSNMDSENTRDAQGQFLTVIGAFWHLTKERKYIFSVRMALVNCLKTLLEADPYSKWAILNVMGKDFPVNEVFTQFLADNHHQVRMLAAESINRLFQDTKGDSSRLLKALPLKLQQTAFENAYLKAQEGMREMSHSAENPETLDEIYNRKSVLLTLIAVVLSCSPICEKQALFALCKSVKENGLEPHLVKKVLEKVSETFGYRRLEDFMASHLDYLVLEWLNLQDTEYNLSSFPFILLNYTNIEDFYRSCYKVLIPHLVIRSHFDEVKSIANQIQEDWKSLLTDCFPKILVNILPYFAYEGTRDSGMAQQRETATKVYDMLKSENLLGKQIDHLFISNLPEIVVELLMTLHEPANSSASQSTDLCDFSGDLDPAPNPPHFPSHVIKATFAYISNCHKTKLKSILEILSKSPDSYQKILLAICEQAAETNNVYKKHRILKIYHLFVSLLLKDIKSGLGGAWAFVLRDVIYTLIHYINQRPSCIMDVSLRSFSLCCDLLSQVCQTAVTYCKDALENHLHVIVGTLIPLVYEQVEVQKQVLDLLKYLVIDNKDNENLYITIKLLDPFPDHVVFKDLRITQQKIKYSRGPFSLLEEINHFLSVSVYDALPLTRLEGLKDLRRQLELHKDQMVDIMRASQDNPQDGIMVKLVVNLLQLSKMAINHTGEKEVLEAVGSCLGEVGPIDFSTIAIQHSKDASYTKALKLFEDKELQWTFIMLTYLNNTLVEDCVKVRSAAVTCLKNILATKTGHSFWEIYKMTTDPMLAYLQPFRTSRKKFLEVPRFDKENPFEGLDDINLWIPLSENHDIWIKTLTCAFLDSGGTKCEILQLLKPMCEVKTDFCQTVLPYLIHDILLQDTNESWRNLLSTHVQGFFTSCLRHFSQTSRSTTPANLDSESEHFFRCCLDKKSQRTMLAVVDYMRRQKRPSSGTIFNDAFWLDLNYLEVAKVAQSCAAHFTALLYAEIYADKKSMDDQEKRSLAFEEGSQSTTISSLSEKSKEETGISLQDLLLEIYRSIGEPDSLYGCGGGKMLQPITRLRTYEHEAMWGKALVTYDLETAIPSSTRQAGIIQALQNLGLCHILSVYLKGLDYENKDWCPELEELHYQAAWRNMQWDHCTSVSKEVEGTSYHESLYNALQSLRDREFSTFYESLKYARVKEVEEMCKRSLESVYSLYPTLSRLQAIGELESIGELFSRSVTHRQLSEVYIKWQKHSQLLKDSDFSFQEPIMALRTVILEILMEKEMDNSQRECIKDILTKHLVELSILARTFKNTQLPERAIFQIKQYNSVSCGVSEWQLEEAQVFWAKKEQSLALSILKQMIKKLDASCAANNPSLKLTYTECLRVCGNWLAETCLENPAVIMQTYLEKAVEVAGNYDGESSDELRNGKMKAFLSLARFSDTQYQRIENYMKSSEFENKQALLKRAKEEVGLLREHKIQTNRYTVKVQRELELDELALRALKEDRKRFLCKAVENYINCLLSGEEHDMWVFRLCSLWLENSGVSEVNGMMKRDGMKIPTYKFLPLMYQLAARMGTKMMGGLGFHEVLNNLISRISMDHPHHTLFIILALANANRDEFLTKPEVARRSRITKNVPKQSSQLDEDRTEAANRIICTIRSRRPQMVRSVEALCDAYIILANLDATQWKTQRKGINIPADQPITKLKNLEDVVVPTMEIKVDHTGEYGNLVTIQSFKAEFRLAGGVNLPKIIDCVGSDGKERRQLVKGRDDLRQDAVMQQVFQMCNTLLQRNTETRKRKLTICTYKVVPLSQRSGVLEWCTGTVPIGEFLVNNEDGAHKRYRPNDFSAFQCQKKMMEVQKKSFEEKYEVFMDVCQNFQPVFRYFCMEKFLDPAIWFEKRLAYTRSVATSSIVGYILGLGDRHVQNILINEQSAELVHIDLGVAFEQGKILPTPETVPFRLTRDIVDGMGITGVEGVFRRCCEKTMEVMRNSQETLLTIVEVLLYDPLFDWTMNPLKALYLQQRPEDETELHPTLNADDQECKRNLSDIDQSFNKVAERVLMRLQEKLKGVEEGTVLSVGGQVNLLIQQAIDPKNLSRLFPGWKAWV
METHOD: ATM in Cell Western Assay (pKAP1 in etoposide-treated MCF-7 cells)
Format: cell-based
COND: MCF-7 cells, etoposide 100 μM, 1 hr, pKAP1 readout
Counter-ions that a name gives are not always drawn.
EXPERIMENTAL_READOUT: IC50

Some entries whose results are on file:
CN1C(=O)C2(CCC2)c2c1cnc1ccc(-c3cnc(N4CCC(N(C)C)CC4)c(NS(C)(=O)=O)c3)cc21 [Example 224] :: 1 to 100 nM
CN(C)CCCOc1ncc(-c2ccc3ncc4c(c3c2)C2(CCC2)C(=O)N4C)cc1NS(=O)(=O)N1CCN(C)CC1 [Example 162, hydrochloride] :: 1 to 100 nM

I would be grateful if you could share the reported IC50 for CN1C(=O)C2(CCC2)c2c1cnc1ccc(-c3cnc(N4CCS(=N)(=O)CC4)c(NS(=O)(=O)c4ccccc4)c3)cc21 (racemic) [Example 138, hydrochloride] . > 100 nM

I would be grateful if you could share the reported IC50 for CN1C(=O)C2(CC2)c2c1cnc1ccc(-c3ccc4[nH]c(=O)ccc4c3)cc21 [Example 40] . > 100 nM

I would be grateful if you could share the reported IC50 for Cc1ccc(S(=O)(=O)Nc2cc(-c3ccc4ncc5c(c4c3)C3(CCC3)C(=O)N5C)cnc2OCCCN2CCC(F)(F)CC2)cc1 [Example 152, hydrochloride] . 1 to 100 nM

I would be grateful if you could share the reported IC50 for Cc1ccc(S(=O)(=O)Nc2cc(-c3ccc4ncc5c(c4c3)C3(CCC3)C(=O)N5C)cnc2N2CCC(N3CCCCC3)CC2)cc1 [Example 192, hydrochloride] . 1 to 100 nM

---

ASSAY_TARGET: DNA-PK (Homo sapiens (Human), UniProt P78527)
METHOD: DNA-PK Enzyme-Linked Immunosorbent Assay (phosphorylation of GST-p53 (1-101) peptide)
Assay type: biochemical
COND: ELISA, ATP 20 μM
pIC50: −log10 of the molar value. Structures can show the parent of a compound that is named as a salt.
Listed here are compounds together with their documented pIC50.

Some entries whose results are on file:
CN(C)CCCOc1ncc(-c2ccc3ncc4c(c3c2)C2(CCC2)C(=O)N4C)cc1NS(=O)(=O)c1cc(Cl)cc(Cl)c1 [Example 157, hydrochloride] :: 7.00 to 9.00
CN(C)CCCOc1ncc(-c2ccc3ncc4c(c3c2)C2(CCC2)C(=O)N4C)cc1NS(=O)(=O)c1cncc(C(F)(F)F)c1 [Example 141, hydrochloride] :: < 7.00
Cc1ccc(S(=O)(=O)Nc2cc(-c3ccc4ncc5c(c4c3)C3(CCC3)C(=O)N5C)cnc2OCCCN2CCCCC2)cn1 [Example 142, hydrochloride] :: > 9.30

I would be grateful if you could share the reported pIC50 for CN(C)CCCOc1ncc(-c2ccc3ncc4c(c3c2)C2(CCC2)C(=O)N4C)cc1NS(=O)(=O)C(F)F [Example 247] . > 9.30

I would be grateful if you could share the reported pIC50 for CN(C)CCCOc1ncc(-c2ccc3ncc4c(c3c2)C2(CC2)C(=O)N4C)cc1NS(=O)(=O)c1ccccc1F [Example 107] . > 9.30

I would be grateful if you could share the reported pIC50 for CNCCCCOc1ncc(-c2ccc3ncc4c(c3c2)C2(CC2)C(=O)N4C)cc1NS(=O)(=O)c1ccccc1 [Example 75] . 7.00 to 9.00

---

ASSAY_TARGET: UniProtKB P78527
METHOD: DNA-PK Enzyme-Linked Immunosorbent Assay (phosphorylation of GST-p53 (1-101) peptide)
Assay type: biochemical
COND: ELISA, ATP 20 μM
pIC50: −log10 of the molar value. Structures can show the parent of a compound that is named as a salt.
Listed here are molecules together with their documented pIC50.

Some entries whose results are on file:
CNC1CN(c2ncc(-c3cc4c5c(cnc4cc3F)N(C)C(=O)C53CCC3)cc2NS(=O)(=O)C2CC2)C1 [Example 333] :: 9.00 to 9.30
CN1C(=O)C2(CC2)c2c1cnc1ccc(-c3cnc(OCCCN4CCCCC4)c(NS(=O)(=O)c4ccccc4)c3)cc21 [Example 67] :: > 9.30
CN(C)CCCOc1ncc(-c2ccc3ncc4c(c3c2)C2(CC2)C(=O)N4C)cc1NS(=O)(=O)c1cccc(C(F)(F)F)c1 [Example 106] :: > 9.30
COc1ncc(-c2ccc3ncc4c(c3c2)C2(CC2)C(=O)N4C)cc1NS(=O)(=O)c1ccccc1 [Example 14] :: > 9.30
CC1CCCN1S(=O)(=O)Nc1cc(-c2ccc3ncc4c(c3c2)C2(CCC2)C(=O)N4C)cnc1OCCCN(C)C (stereo not shown) [Example 172] :: 7.00 to 9.00
CNC1CN(c2ncc(-c3cc4c5c(cnc4cc3F)N(C)C(=O)C53CCC3)cc2NS(=O)(=O)N(C)C)C1 [Example 332] :: 7.00 to 9.00

Please find the next molecule below.
Which pIC50 is reported with UniProtKB P78527 for this entry: CN(C)CCCOc1ncc(-c2ccc3ncc4c(c3c2)C2(CCC2)C(=O)N4C)cc1NS(=O)(=O)c1ccns1 [Example 188, hydrochloride] ? > 9.30

---

Listed here are compounds together with their documented pIC50.
ASSAY_TARGET: ATM (Homo sapiens (Human))
METHOD: ATM in Cell Western Assay (pKAP1 in etoposide-treated MCF-7 cells)
Format: cell-based
COND: pKAP1 in etoposide-treated MCF-7 cells
pIC50: −log10 of the molar value. Where a name gives a salt, the structure may show the parent alone.

CC(C)NCCOc1ncc(-c2cc3c4c(cnc3cc2F)N(C)C(=O)C42CC3(CCNCC3)C2)cc1NS(C)(=O)=O :: < 7.00
CCS(=O)(=O)Nc1cc(-c2cc3c4c(cnc3cc2F)N(C)C(=O)C42CN(c3ccccc3)C2)cnc1OCCNC(C)C [Example 522, hydrochloride] :: 7.00 to 9.00
CC(C)NCCOc1ncc(-c2cc3c4c(cnc3cc2F)N(C)C(=O)C42CCC2)cc1NS(=O)(=O)C(C)(C)C :: 7.00 to 9.00
CC(C)NCCOc1ncc(-c2cc3c4c(cnc3cc2F)N(C)C(=O)C42CC(C)(C)C2)cc1NS(C)(=O)=O :: 7.00 to 9.00
CC(C)NCCOc1ncc(-c2cc3c(cc2F)ncc2c3[C@]3(C[C@H](N4CCCCC4)C3)C(=O)N2C)cc1NS(C)(=O)=O :: 7.00 to 9.00

Please find the next compound below.
I would be grateful if you could share the reported pIC50 for CC(C)NCCOc1ncc(-c2cc3c(cc2F)ncc2c3[C@]3(C[C@H](Oc4ccccc4)C3)C(=O)N2C)cc1NS(=O)(=O)N(C)C [Example 402, hydrochloride] . 7.00 to 9.00

---

ASSAY_TARGET: ATM (Homo sapiens (Human), UniProt Q13315)
METHOD: ATM in Cell Western Assay (pKAP1 in etoposide-treated MCF-7 cells)
Assay type: cell-based
COND: pKAP1 in etoposide-treated MCF-7 cells
Counter-ions that a name gives are not always drawn.
Listed here are compounds together with their documented IC50.

I would be grateful if you could share the reported IC50 for CN1C(=O)C2(CCC2)c2c1cnc1ccc(-c3cnc(N4CC5CN(C(=O)OC(C)(C)C)CC5C4)c(NS(C)(=O)=O)c3)cc21 (stereo not drawn) [Example 348] . > 100 nM

I would be grateful if you could share the reported IC50 for CC(C)NCCOc1ncc(-c2cc3c(cc2F)ncc2c3[C@]3(C[C@@H](c4ccc(F)cc4)C3)C(=O)N2C)cc1NS(C)(=O)=O [Example 423] . 1 to 100 nM

I would be grateful if you could share the reported IC50 for CN1C(=O)C2(CCC2)c2c1cnc1ccc(-c3cnc(N4CCC(N5CCOCC5)CC4)c(NS(C)(=O)=O)c3)cc21 [Example 357, hydrochloride] . 0.5 to 1 nM

---

ASSAY_TARGET: ATM (Homo sapiens (Human))
METHOD: ATM in Cell Western Assay (pKAP1 in etoposide-treated MCF-7 cells)
Assay type: cell-based
COND: MCF-7 cells, etoposide 100 μM, 1 hr, pKAP1 readout
Structures can show the parent of a compound that is named as a salt.
EXPERIMENTAL_READOUT: IC50

CCN(CC)S(=O)(=O)Nc1cc(-c2ccc3ncc4c(c3c2)C2(CCC2)C(=O)N4C)cnc1OCCCN(C)C [Example 183] :: 1 to 100 nM
CC1CN(S(=O)(=O)Nc2cc(-c3ccc4ncc5c(c4c3)C3(CCC3)C(=O)N5C)cnc2OCCCN(C)C)CC(C)O1 (centres unmarked) [Example 184] :: 1 to 100 nM
COc1cc2ncc3c(c2cc1-c1cnc(OCCCN(C)C)c(NS(=O)(=O)c2ccccc2)c1)C1(CC1)C(=O)N3C [Example 82] :: 0.5 to 1 nM
CN(C)CCCOc1ncc(-c2cc3c4c(cnc3cc2F)N(C)C(=O)C42CCC2)cc1NS(C)(=O)=O [Example 291, hydrochloride] :: 1 to 100 nM
CN(C)CCCOc1ncc(-c2ccc3ncc4c(c3c2)C2(CCC2)C(=O)N4C)cc1NS(=O)(=O)c1cncs1 [Example 169, hydrochloride] :: 1 to 100 nM
CN1C(=O)C2(CCC2)c2c1cnc1ccc(-c3cnc(OCCCN4CCCC(O)C4)c(NS(C)(=O)=O)c3)cc21 (centres unmarked) [Example 270] :: 1 to 100 nM
CCNCCOc1ncc(-c2ccc3ncc4c(c3c2)C2(CCC2)C(=O)N4C)cc1NS(C)(=O)=O [Example 248] :: 1 to 100 nM
CN1C(=O)C2(CC2)c2c1cnc1ccc(-c3cnc(Cl)c(NS(=O)(=O)c4ccccc4)c3)cc21 [Example 15] :: 1 to 100 nM
Cc1ccc(S(=O)(=O)Nc2cc(-c3cc4c5c(cnc4cc3F)N(C)C(=O)C53CCC3)cnc2OCCCN2CCCCC2)cn1 [Example 217, hydrochloride] :: 1 to 100 nM
CN(C)CCCOc1ncc(-c2ccc3ncc4c(c3c2)C2(CCC2)C(=O)N4C)cc1NS(=O)(=O)N1CCCc2ccccc21 [Example 139] :: 1 to 100 nM

I would be grateful if you could share the reported IC50 for CN(C)CCCOc1ncc(-c2ccc3ncc4c(c3c2)C2(CC2)C(=O)N4C)cc1NS(=O)(=O)c1cccnc1 [Example 85] . 1 to 100 nM

I would be grateful if you could share the reported IC50 for CN(C)CCCOc1ncc(-c2ccc3ncc4c(c3c2)C2(CC2)C(=O)N4C)cc1NS(=O)(=O)c1ccccc1F [Example 107] . 0.5 to 1 nM

I would be grateful if you could share the reported IC50 for Cc1ccc(S(=O)(=O)N(C)c2cc(-c3ccc4ncc5c(c4c3)C3(CCC3)C(=O)N5C)cnc2OCCCN2CCCCC2)cn1 [Example 191] . > 100 nM

I would be grateful if you could share the reported IC50 for CN(C)CCCOc1ncc(-c2ccc3ncc4c(c3c2F)C2(CCC2)C(=O)N4C)cc1NS(C)(=O)=O [Example 268] . 1 to 100 nM
